Assay: Toxicity liver stage against HepG2, at 10uM
Assay type: cell-based
Set-up: test concentration 10 uM, cell line HepG2-A16-CD81EGFP
Conditions: human, HepG2-A16-CD81EGFP cells; read-out: INHIBITION
Kindly supply the reported cytotoxicity at 10 µM values for the records listed here.
Could you give me the number in %? Just the number is fine.

Query: // query cytotoxicity at 10 µM value for entry Cn1ncc2c(N3CCN(C(N)=O)CC3)nc(C3CCCC3)nc21
Result: 18.2

Query: Please report the recorded cytotoxicity at 10 µM for Nc1nccc(C2CCN(CCO)C2)n1 (stereo not drawn) .
Result: 0.51

Query: Consider the compound shown here: CCn1nc(C)c2c1cnn2CC(=O)N1CCN(C)CC1 What is its recorded cytotoxicity at 10 µM?
Result: 4.92

Query: Request the reported cytotoxicity at 10 µM associated with CC1(C(N)=O)CN(S(=O)(=O)c2cccc(F)c2)CCO1 (stereo not drawn)
Result: 6.73

Query: cytotoxicity at 10 µM for O=C(NCC1(COc2cnccn2)C[C@@H](O)[C@@H](O)C1)C1CCOCC1 (stereo partly drawn) ?
Result: -2.48

Query: Could you share which cytotoxicity at 10 µM value was measured for Cc1nc(CN2CCC23CCN(Cc2ccoc2)CC3)cs1 ?
Result: -109

Query: // query cytotoxicity at 10 µM value for entry Cc1ccnc(C(NC(=O)c2ccc(O)nc2C)C2CC2)n1 (stereo not drawn)
Result: -5.3

Query: Which cytotoxicity at 10 µM is listed for CC(C)c1cc(CN2CCC(CC(=O)O)CC2)no1 ?
Result: -2.53

Query: State the recorded cytotoxicity at 10 µM for this entry: COc1ccccc1CN1CCCCC1c1n[nH]cc1-c1cc(C)no1 (stereo not drawn)
Result: 13.6

Query: Field request: cytotoxicity at 10 µM | item: CC(Cc1ccco1)NC(=O)Nc1ccc(S(C)(=O)=O)nc1 (stereo not drawn)
Result: 3.95

Query: # lookup: cytotoxicity at 10 µM of O=C(c1cccnc1)N1CCCC1c1cc[nH]n1 (stereo not drawn)
Result: -26.5

Query: GET /values?readout=cytotoxicity at 10 µM&item= O=C1CN(Cc2ccc3ccccc3n2)CCN1C1CCCC1
Result: -3.45

Query: Consider the compound shown here: Cc1ccc(CS(=O)(=O)N2Cc3c(CN(C)C)nn(C)c3C2)cc1 What is its recorded cytotoxicity at 10 µM?
Result: -98.2

Query: Can you look up the measured cytotoxicity at 10 µM of CCc1nnsc1C(=O)N1CCOC(c2nc(C(C)C)n[nH]2)C1 (stereo not drawn) for me?
Result: 1.23

Query: If you can, please state the reported cytotoxicity at 10 µM value of Cn1cc(-n2cc3nc(N4CCOCC4)[nH]cc-3c2=O)cn1 .
Result: 7.36

Query: Entry Cc1nc(CN(C)C2CCCN(c3cccnn3)C2)nc2ccccc12 (stereo not drawn) has what cytotoxicity at 10 µM?
Result: -0.164

Query: // returns reported cytotoxicity at 10 µM for input Cc1ccccc1C(C#N)NC(=O)CCCOc1cccnc1 (stereo not drawn)
Result: -0.398

Query: Name the recorded cytotoxicity at 10 µM for CN(C)S(=O)(=O)N1C[C@@H](OCc2ccccn2)[C@H]2OCCC[C@H]21 .
Result: 10.7

Query: cytotoxicity at 10 µM; subject: CCc1ccc(CN2CC[C@H]3[C@H]2CC(=O)N3Cc2cccc(C)n2)o1
Result: -2.19

Query: Which cytotoxicity at 10 µM value belongs to CCCc1noc(CN2CCN(c3nccs3)CC2)n1 ?
Result: -3.43

Query: Could you tell me which cytotoxicity at 10 µM is on file for CN1CCN(S(=O)(=O)c2cccc(C#N)c2)c2ccc(F)cc21 ?
Result: 2.98

Query: What does the record list as cytotoxicity at 10 µM for O=C(c1cccnc1)N1CCC2(CC1)CCN(c1ccsc1)C2=O ?
Result: 6.84

Query: Please look up its cytotoxicity at 10 µM: Cc1nc(C)n(CC2CCCCN2Cc2cscn2)n1 (stereo not drawn)
Result: -5.26

Query: Using the record for Cc1nn(C)c(N2CCOCC2)c1CNCc1ccccc1CO , report its cytotoxicity at 10 µM.
Result: -13.2

Query: Please report the recorded cytotoxicity at 10 µM for CC(=O)NCC(=O)N1CCC(C2CCN(Cc3ccc(Cl)cc3)C2)CC1 (stereo not drawn) .
Result: -9.12

Query: Which cytotoxicity at 10 µM is reported for this compound? Cn1ccnc1C1c2nc[nH]c2CCN1Cc1cccnc1 (stereo not drawn)
Result: 0.0371

Query: Would you kindly share the measured cytotoxicity at 10 µM for CCN1CCN(c2nc(C(C)C)nc3c(C)nn(CC)c23)CC1 ?
Result: -12.6

Query: # input compound: O=C1CCN(C(=O)C2(c3ccc(F)cc3)CCCC2)CCN1 ; wanted: its cytotoxicity at 10 µM
Result: -8.27

Query: // returns reported cytotoxicity at 10 µM for input Cc1cc(CN(CCO)Cc2cc(Br)ccc2F)no1
Result: 3.46

Query: Recorded cytotoxicity at 10 µM for CCOC(=O)Cn1ccc(NC(=O)Cc2ccccc2F)n1 , please?
Result: 3.33

Query: Look up cytotoxicity at 10 µM for this compound: O=C(CCc1ccccc1)C1CCCN(Cc2cncn2C2CC2)C1 (stereo not drawn)
Result: -7.12

Query: Consider the compound Cc1ccc(-c2ncc(C(=O)NCCNc3ncccn3)s2)c(C)c1 and give its measured cytotoxicity at 10 µM.
Result: -9.12

Query: Given Fc1cccc(-c2n[nH]cc2-c2nc(CN3CCOCC3)no2)c1 , state its recorded cytotoxicity at 10 µM.
Result: -7.58

Query: Item O=C1CCCCN1CCc1nc(-c2cccnn2)no1 has what recorded cytotoxicity at 10 µM?
Result: -5.67

Query: Recorded cytotoxicity at 10 µM for CN(C)S(=O)(=O)N1CCCC(CCC(=O)Nc2ccc(Cl)cc2)C1 (stereo not drawn) , please?
Result: -12.5

Query: Name the recorded cytotoxicity at 10 µM for Cc1nnc(CN(Cc2ccc3c(c2)OCO3)C2CCC(C)CC2)o1 (stereo not drawn) .
Result: -1.89

Query: Please look up its cytotoxicity at 10 µM: CC(C)c1nc(CSc2nnc(C3CC3)n2CC(N)=O)no1
Result: -147

Query: // lookup cytotoxicity at 10 µM for CCC(Nc1nnnn1-c1ccccc1)C(=O)Nc1nc(C)cs1 (stereo not drawn)
Result: -23

Query: Given the compound CCNC(=O)[C@@H]1C[C@@H](N)CN1C(=O)c1[nH]c2ccccc2c1CC , what is its reported cytotoxicity at 10 µM?
Result: 0.106

Query: Can you share its cytotoxicity at 10 µM? I mean this compound: Cc1ccc(CN(C)C(=O)Cn2nc(-c3ccc(F)cc3)oc2=O)cc1
Result: -20.6

Query: Query (compound): CC(C)CCNC(=O)c1ccc(-n2cnc3ccccc3c2=O)cc1 ; field requested: cytotoxicity at 10 µM
Result: -6.17

Query: Recorded cytotoxicity at 10 µM of CC(C(=O)NCCN1CCOCC1)n1cncn1 (stereo not drawn) , please.
Result: -2.85

Query: Name the recorded cytotoxicity at 10 µM for CC(C)c1nccn1C(C)C(=O)N1CCN(S(C)(=O)=O)CC1 (stereo not drawn) .
Result: -4.32

Query: Entry under review: Cc1[nH]ccc1C(=O)NC1CCC(N2C(=O)CCC2=O)CC1 (stereo not drawn) . Reported cytotoxicity at 10 µM?
Result: -3.81

Query: What value of cytotoxicity at 10 µM has been reported for the following compound? Cc1nc(C2CN(Cc3ccccc3C)CCO2)no1 (stereo not drawn)
Result: -1.51

Query: cytotoxicity at 10 µM; subject: c1cc(N2CCC(c3nnc(Cn4ccnc4)n3C3CC3)CC2)ccn1
Result: -4.31

Query: Record request: cytotoxicity at 10 µM value, item COC1CCN(C(=O)Nc2cc(C(F)(F)F)c[nH]c2=O)CC1
Result: 4.1

Query: Fill in: cytotoxicity at 10 µM of N#Cc1ccc(N2CCCC3(CCN(c4cccnc4)CC3)C2)cc1 is ___
Result: 55.5

====

Experiment: Toxicity liver stage against HepG2, at 10uM
Assay type: cell-based
Set-up: test concentration 10 uM, cell line HepG2-A16-CD81EGFP
Settings: human, HepG2-A16-CD81EGFP cells; read-out: INHIBITION
Quantity: cytotoxicity at 10 µM (%)
Respond with the bare value in %.

Query: Item O=C(NCCN1CCNC1=O)c1cnc(-c2cccnc2)nc1 has what recorded cytotoxicity at 10 µM?
Result: -0.885

Query: Looking for the measured cytotoxicity at 10 µM of c1cncc(-c2noc(CN3CCc4cncnc4C3)n2)c1 , can you help?
Result: -3.39

Query: Which cytotoxicity at 10 µM is reported for this compound? CCCS(=O)(=O)CCSc1cccc(C#N)c1
Result: -3.85

Query: What does the record list as cytotoxicity at 10 µM for Cc1nc(COCC2CN(C(N)=O)Cc3nccn3C2)cs1 (stereo unspecified) ?
Result: 5.3

Query: // query cytotoxicity at 10 µM value for entry CCN(C)C[C@@H]1CN(S(=O)(=O)c2ccc(C#N)cc2)C[C@@H]1CO
Result: 13.5

Query: Which measured cytotoxicity at 10 µM value corresponds to Cc1noc(CCCNC(=O)CNC(=O)c2cc3ccccc3[nH]2)n1 ?
Result: 4.81

Query: Which cytotoxicity at 10 µM value is on record for CN1C[C@@H]2COC[C@]2(C(=O)NCc2cccs2)C1 ?
Result: 9.22

Query: Looking for the measured cytotoxicity at 10 µM of CCC(O)CN1CCN(C(=O)CN(C)c2ccc(Cl)cn2)CC1 (stereo unspecified) , can you help?
Result: 0.684

Query: Find the recorded cytotoxicity at 10 µM belonging to COCCn1cnc(-c2nc(C(=O)N3CCOCC3)c3ccccn23)c1 and report it.
Result: -10.3

Query: cytotoxicity at 10 µM for NC(=O)CN1CCCN(C(=O)Cc2ccc(F)c(Br)c2)CC1 ?
Result: 0.361

Query: Dear colleague, I am looking for the recorded cytotoxicity at 10 µM of the following compound: COc1cccc(CCN2C[C@H]3CCNCC[C@H]3S2(=O)=O)c1
Result: -8.35
